Reference source for all entries: patent US10442804B2

assay: MT-4 cytotoxicity assay; assay type: cell-based, human; conditions: human, five days, Cell Titer Glo luminescence; read-out: MT-4 CC50
Readout kind: CC50 at 5 days

According to the records, this compound COCCCOc1cc2c(cc1Cl)-c1cc(=O)c(C(=O)O)cn1N1[C@@H]2CCC1(C)C (single isomer, unassigned) displays CC50 at 5 days of > 10 µM

According to the records, this compound COCCCOc1cc2c(cc1Cl)-c1cc(=O)c(C(=O)O)cn1N1[C@H](C)CC[C@@H]21 (single isomer, unassigned) displays CC50 at 5 days of > 10 µM

According to the records, this compound CC(C)(C)OC(=O)[C@H]1CCN(c2cc3c(cc2OC(F)(F)F)-c2cc(=O)c(C(=O)O)cn2N2[C@@H]3CCC2(C)C)C1 displays CC50 at 5 days of 8.3 µM

According to the records, this compound COCCCOc1cc2c(cc1OCC(F)F)-c1cc(=O)c(C(=O)O)cn1N1[C@@H]2CCC1(C)C displays CC50 at 5 days of > 10 µM

According to the records, this compound COCc1cc2c(cc1OCCCOC1COC1)[C@H]1CCC(C)(C)N1n1cc(C(=O)O)c(=O)cc1-2 displays CC50 at 5 days of > 10 µM

According to the records, this compound COCCCOc1cc2c(cc1Cl)-c1cc(=O)c(C(=O)O)cn1N1CC(C)(C)CCC21 (stereo not shown) displays CC50 at 5 days of > 10 µM

According to the records, this compound CCc1cc2c(cc1OCC13CC(C#N)(C1)C3)[C@H]1CCC(C)(C)N1n1cc(C(=O)O)c(=O)cc1-2 displays CC50 at 5 days of 3.9 µM

====

Provide the recorded CC50 at 5 days for the entries that follow.
test: MT-4 cytotoxicity assay; assay type: cell-based, human; conditions: human, five days, Cell Titer Glo luminescence; read-out: MT-4 CC50

According to the records, this molecule COCCCOc1cc2c(cc1Cl)-c1cc(=O)c(C(=O)O)cn1N1CCC(C)(C)[C@H]21 (single isomer, unassigned) [Example 47] displays CC50 at 5 days of 1.7 µM

According to the records, this molecule COCCCOc1cc2c(cc1C1CC1)-c1cc(=O)c(C(=O)O)cn1N1[C@@H]2COCC1(C)C [Example 101] displays CC50 at 5 days of 8.2 µM

According to the records, this molecule CC(C)(O)C#Cc1cc2c(cc1C1CC1)-c1cc(=O)c(C(=O)O)cn1N1[C@@H]2CCC1(C)C [Example 71] displays CC50 at 5 days of > 10 µM

According to the records, this molecule COc1cc2c(cc1OCC1COC1)[C@H]1CCC(C)(C)N1n1cc(C(=O)O)c(=O)cc1-2 [Example 16] displays CC50 at 5 days of > 10 µM

According to the records, this molecule COCCCOc1cc2c(cc1Cl)-c1cc(=O)c(C(=O)O)cn1[C@@H]1[C@@H]2CCC1(C)C (single isomer, unassigned) [Example 36] displays CC50 at 5 days of > 10 µM

According to the records, this molecule CC1(C)CC[C@@H]2c3cc(OCCCOC4COC4)c(Cl)cc3-c3cc(=O)c(C(=O)O)cn3N21 [Example 98] displays CC50 at 5 days of > 10 µM

According to the records, this molecule CC1(C)CC[C@@H]2c3cc(C#CC(C)(C)S(C)(=O)=O)c(OC(F)F)cc3-c3cc(=O)c(C(=O)O)cn3N21 [Compound 112] displays CC50 at 5 days of > 10 µM

According to the records, this molecule CC1(C)CC[C@@H]2c3cc(OCC4COC4)c(C4CC4)cc3-c3cc(=O)c(C(=O)O)cn3N21 [Example 66] displays CC50 at 5 days of > 10 µM

According to the records, this molecule COCCCOc1cc2c(cc1CO)-c1cc(=O)c(C(=O)O)cn1N1[C@@H]2CCC1(C)C [Compound 113] displays CC50 at 5 days of > 10 µM

According to the records, this molecule COCCCOc1cc2c(cc1Cl)-c1cc(=O)c(C(=O)O)cn1N1[C@H]2COCC1(C)C (single isomer, unassigned) [Example 39] displays CC50 at 5 days of > 10 µM

According to the records, this molecule COc1cc2c(cc1C#CC(C)(C)OC)[C@H]1CCC(C)(C)N1n1cc(C(=O)O)c(=O)cc1-2 [Example 43] displays CC50 at 5 days of > 10 µM

According to the records, this molecule CC1(C)CC[C@@H]2c3cc(OCC45CC(C#N)(C4)C5)c(OC(F)F)cc3-c3cc(=O)c(C(=O)O)cn3N21 [Example 104] displays CC50 at 5 days of > 10 µM

According to the records, this molecule COCCCOc1cc2c(cc1Cl)-c1cc(=O)c(C(=O)O)cn1N1[C@@H]2CC1(C)C [Example 46] displays CC50 at 5 days of > 10 µM

According to the records, this molecule COCCCOc1cc2c(cc1Cl)-c1cc(=O)c(C(=O)O)cn1N1CCCC21 (stereo not drawn) [Example 1] displays CC50 at 5 days of 8 µM

According to the records, this molecule CC1(C)CC[C@@H]2c3cc(C#Cc4ccc(N)nc4)c(OC(F)F)cc3-c3cc(=O)c(C(=O)O)cn3N21 [Compound 106] displays CC50 at 5 days of 7.5 µM

====

assay: MT-4 cytotoxicity assay; type: cell-based, human; conditions: human, five days, Cell Titer Glo luminescence; read-out: MT-4 CC50
Readout kind: CC50 at 5 days (µM)
Numeric only. Scale: µM

According to the records, this compound CC1(C)CC[C@@H]2c3cc(OCC45CC(C#N)(C4)C5)c(C4CC4)cc3-c3cc(=O)c(C(=O)O)cn3N21 displays CC50 at 5 days of 3.6

According to the records, this compound COC(C)(C)C#Cc1cc2c(cc1C1CC1)-c1cc(=O)c(C(=O)O)cn1N1[C@@H]2CCC1(C)C displays CC50 at 5 days of 6.4

According to the records, this compound COc1cc2c(cc1OCCCOC(F)(F)F)[C@H]1CCC(C)(C)N1n1cc(C(=O)O)c(=O)cc1-2 displays CC50 at 5 days of 9.3

====

assay: In vitro metabolic stability, hepatocyte stability (cynomolgus monkey); type: in vitro ADME; details: Cyno hepatocytes, read-out: hepatocyte stability T1/2 (converted)
Readout kind: half-life at 2 μM (h)
Numeric only. Scale: h

According to the records, this compound COCCCOc1cc2c(cc1Cl)-c1cc(=O)c(C(=O)O)cn1[C@H]1[C@@H]2CCC1(C)C (single isomer, unassigned) displays half-life at 2 μM of 5.6

According to the records, this compound COCCCOc1cc2c(cc1Cl)-c1cc(=O)c(C(=O)O)cn1N1[C@@H]2CCC1(C)C (single isomer, unassigned) displays half-life at 2 μM of 20.8

====

system: HBV-infected NTCP-HepG2 cells, secreted HBsAg; assay: microbe, parasite or virus in culture; type: cell-based, hepatitis B virus (genotype D, AD38-derived); settings: Hepatitis B virus, 120 h, secreted HBsAg in supernatant after 5 days; geometric mean of minimum four determinations; read-out: NTCP HBsAg EC50
Readout kind: EC50

Measured EC50 (HBV-infected NTCP-HepG2 cells, secreted HBsAg), entry COCCCOc1cc2c(cc1C1COC1)-c1cc(=O)c(C(=O)O)cn1N1[C@@H]2CCC1(C)C [Example 77] : 12.5 nM

Measured EC50 (HBV-infected NTCP-HepG2 cells, secreted HBsAg), entry COCc1cc2c(cc1OCCCOC(=O)NC1(C(F)F)CC1)[C@H]1CCC(C)(C)N1n1cc(C(=O)O)c(=O)cc1-2 [Example 88] : 5.4 nM

Measured EC50 (HBV-infected NTCP-HepG2 cells, secreted HBsAg), entry CC1(C)CC[C@@H]2c3cc(OCCn4nc5ccccn5c4=O)c(C4CC4)cc3-c3cc(=O)c(C(=O)O)cn3N21 [Example 96] : 0.17 nM

Measured EC50 (HBV-infected NTCP-HepG2 cells, secreted HBsAg), entry CC1(C)CC[C@@H]2c3cc(OCC45CC(C#N)(C4)C5)c(C4CC4)cc3-c3cc(=O)c(C(=O)O)cn3N21 [Example 99] : 0.66 nM

Measured EC50 (HBV-infected NTCP-HepG2 cells, secreted HBsAg), entry COCCCOc1cc2c(cc1OC)-c1cc(=O)c(C(=O)O)cn1N1[C@@H]2CCC1(C)C [Example 14] : 2.1 nM

Measured EC50 (HBV-infected NTCP-HepG2 cells, secreted HBsAg), entry COc1cc2c(cc1OCCCOC(F)(F)F)[C@H]1CCC(C)(C)N1n1cc(C(=O)O)c(=O)cc1-2 [Example 58] : 4.8 nM

Measured EC50 (HBV-infected NTCP-HepG2 cells, secreted HBsAg), entry COCc1cc2c(cc1OCCn1nc3ccccn3c1=O)[C@H]1CCC(C)(C)N1n1cc(C(=O)O)c(=O)cc1-2 [Example 95] : 4.6 nM

Measured EC50 (HBV-infected NTCP-HepG2 cells, secreted HBsAg), entry COCC12CC(COc3cc4c(cc3OC(F)F)-c3cc(=O)c(C(=O)O)cn3N3[C@@H]4CCC3(C)C)(C1)C2 [Compound 105] : 1.4 nM

Measured EC50 (HBV-infected NTCP-HepG2 cells, secreted HBsAg), entry CC1(C)CC[C@@H]2c3cc(OCCCOC(F)(F)F)c(Cl)cc3-c3cc(=O)c(C(=O)O)cn3N21 [Example 55] : 3.7 nM

Measured EC50 (HBV-infected NTCP-HepG2 cells, secreted HBsAg), entry COCCCOc1cc2c(cc1Cl)-c1cc(=O)c(C(=O)O)cn1N1CCC[C@@H]21 (single isomer, unassigned) [Example 3] : > 1000 nM

Measured EC50 (HBV-infected NTCP-HepG2 cells, secreted HBsAg), entry CC1(C)CC[C@@H]2c3cc(C#CC(C)(C)S(C)(=O)=O)c(OC(F)F)cc3-c3cc(=O)c(C(=O)O)cn3N21 [Compound 112] : 2.7 nM

Measured EC50 (HBV-infected NTCP-HepG2 cells, secreted HBsAg), entry COCCCOc1cc2c(cc1Cl)-c1cc(=O)c(C(=O)O)cn1N1CCCC(C)(C)C21 (centres unmarked) [Example 38] : 27 nM

Measured EC50 (HBV-infected NTCP-HepG2 cells, secreted HBsAg), entry COc1cc2c(cc1OCCCOC(C)(C)C)[C@H]1CCC(C)(C)N1n1cc(C(=O)O)c(=O)cc1-2 [Example 65] : 0.41 nM

Measured EC50 (HBV-infected NTCP-HepG2 cells, secreted HBsAg), entry COCCCOc1c(OC)cc2c(c1F)[C@H]1CCC(C)(C)N1n1cc(C(=O)O)c(=O)cc1-2 [Example 67] : 5.3 nM

Measured EC50 (HBV-infected NTCP-HepG2 cells, secreted HBsAg), entry CC1(C)CC[C@@H]2c3cc(-c4cnn(C(F)F)c4)c(Cl)cc3-c3cc(=O)c(C(=O)O)cn3N21 [Example 76] : 6.3 nM

Measured EC50 (HBV-infected NTCP-HepG2 cells, secreted HBsAg), entry COc1cc2c(cc1OCC1COC1)[C@H]1CCC(C)(C)N1n1cc(C(=O)O)c(=O)cc1-2 [Example 16] : 7.8 nM

Measured EC50 (HBV-infected NTCP-HepG2 cells, secreted HBsAg), entry COCCCOc1cc2c(cc1Cl)-c1cc(=O)c(C(=O)O)cn1N1[C@@H]2CCC12COC(C)(C)OC2 [Example 81] : 386 nM

Measured EC50 (HBV-infected NTCP-HepG2 cells, secreted HBsAg), entry CC(C)(C)OC(=O)[C@H]1CCN(c2cc3c(cc2OC(F)(F)F)-c2cc(=O)c(C(=O)O)cn2N2[C@@H]3CCC2(C)C)C1 [Compound 115] : 2.9 nM

Measured EC50 (HBV-infected NTCP-HepG2 cells, secreted HBsAg), entry COc1cc2c(cc1OCCC(C)(C)OC)[C@H]1CCC(C)(C)N1n1cc(C(=O)O)c(=O)cc1-2 [Example 64] : 0.84 nM

Measured EC50 (HBV-infected NTCP-HepG2 cells, secreted HBsAg), entry CC1(C)CC[C@@H]2c3cc(OCCCOC4COC4)c(Cl)cc3-c3cc(=O)c(C(=O)O)cn3N21 [Example 98] : 2.2 nM

Measured EC50 (HBV-infected NTCP-HepG2 cells, secreted HBsAg), entry COCCCOc1cc2c(cc1OC(F)F)-c1cc(=O)c(C(=O)O)cn1N1[C@@H]2CCC1(C)C (single isomer, unassigned) [Example 19] : 1.2 nM

Measured EC50 (HBV-infected NTCP-HepG2 cells, secreted HBsAg), entry COCCCOc1cc2c(cc1OC(C)C)-c1cc(=O)c(C(=O)O)cn1N1[C@@H]2CCC1(C)C [Example 22] : 12 nM

Measured EC50 (HBV-infected NTCP-HepG2 cells, secreted HBsAg), entry COCCCOc1cc2c(cc1Cl)-c1cc(=O)c(C(=O)O)cn1[C@@H]1[C@H]2CCC1(C)C (single isomer, unassigned) [Example 34] : 220 nM

Measured EC50 (HBV-infected NTCP-HepG2 cells, secreted HBsAg), entry COC(C)(C)C#Cc1cc2c(cc1Cl)-c1cc(=O)c(C(=O)O)cn1N1[C@@H]2CCC12CC2 [Example 85] : 4.1 nM

Measured EC50 (HBV-infected NTCP-HepG2 cells, secreted HBsAg), entry COC(C)(C)C#Cc1cc2c(cc1C1CC1)-c1cc(=O)c(C(=O)O)cn1N1[C@@H]2CCC1(C)C [Example 72] : 0.95 nM

Measured EC50 (HBV-infected NTCP-HepG2 cells, secreted HBsAg), entry COc1cc2c(cc1C#CC(C)(C)OC)[C@H]1CCC(C)(C)N1n1cc(C(=O)O)c(=O)cc1-2 [Example 43] : 7.6 nM

Measured EC50 (HBV-infected NTCP-HepG2 cells, secreted HBsAg), entry CCc1cc2c(cc1OCCCOC)[C@H]1CCC(C)(C)N1n1cc(C(=O)O)c(=O)cc1-2 [Example 63] : 0.34 nM

Measured EC50 (HBV-infected NTCP-HepG2 cells, secreted HBsAg), entry COCCCOc1cc2c(cc1Cl)-c1cc(=O)c(C(=O)O)cn1N1CC(C)(C)CCC21 (centres unmarked) [Example 17] : 110 nM

Measured EC50 (HBV-infected NTCP-HepG2 cells, secreted HBsAg), entry COc1cc2c(cc1Oc1ncccn1)[C@H]1CCC(C)(C)N1n1cc(C(=O)O)c(=O)cc1-2 [Example 41] : 120 nM
